test: DUSP6 inhibitors restoring Erk phosphorylation by chemical complementation, primary imaging in DUSP6-transfected HeLa (AID 609); settings: HeLa MKP-3 transfected, phospho-Erk imaging KS statistic; measured here: cell density z-score; at 10 µM; cells stimulated with TPA for 15 min
Category | rule: reported z-score within range, see bin 1 = under -0.7, bin 2 = from -0.7 up to 0.05, bin 3 = 0.05 and over

Solved cases below.
Into which category would you place `c1coc(-c2nnc3sc(C4CCCCC4)nn23)c1` ? bin 2

Also need `CC(C)(C)C1=Nn2c(nnc2-c2ccco2)SC1` , thanks. bin 2

Also need `CCOC(=O)c1c(-c2cccs2)csc1NC(=O)CCCC(=O)O` , thanks. bin 2

Also need COc1ccc(C2C(C#N)=C(N)Oc3n[nH]c(C)c32)cc1CSc1ccccn1 (stereo not drawn) , thanks. bin 2

Also need `CC(C)(C)OC(=O)N1CC=C2C(C#N)=C(N)C(C#N)(C#N)[C@H](c3cccnc3)[C@H]2C1` , thanks. bin 1

Also need `CCCCC[C@H](O)/C=C/C1=C(CCCCCCC(=O)O)C(=O)CC1` , thanks. bin 2

Next:
Into which category would you place `Cc1nnc(SCC(=O)N2CCC(C(N)=O)CC2)s1` ? bin 1

Also need `CCOC(=O)c1[nH]c2cc3c(cc2c1NC(=O)CN1CCC(C)CC1)OCO3` , thanks. bin 1

Also need `O=C1c2ccccc2C(=O)N1CCN1CCc2ccccc21` , thanks. bin 3

Also need `CC(=O)Nc1ccc(-c2cc3ccccc3o2)cc1` , thanks. bin 2

Also need `COc1cccc(-c2nn3c(-c4ccccn4)nnc3s2)c1` , thanks. bin 3

* * *

target: Dual specificity protein phosphatase 6 (Homo sapiens) (UniProt Q16828); assay: DUSP6 inhibitors restoring Erk phosphorylation by chemical complementation, primary imaging in DUSP6-transfected HeLa (AID 609); settings: HeLa MKP-3 transfected, phospho-Erk imaging KS statistic; at 10 µM; stronger effect = higher value; cells stimulated with TPA for 15 min;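 on inhibition: phospho-Erk level distribution per well compared with pooled transfected vehicle control wells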
Sequence (Q16828 whole entry, looked up): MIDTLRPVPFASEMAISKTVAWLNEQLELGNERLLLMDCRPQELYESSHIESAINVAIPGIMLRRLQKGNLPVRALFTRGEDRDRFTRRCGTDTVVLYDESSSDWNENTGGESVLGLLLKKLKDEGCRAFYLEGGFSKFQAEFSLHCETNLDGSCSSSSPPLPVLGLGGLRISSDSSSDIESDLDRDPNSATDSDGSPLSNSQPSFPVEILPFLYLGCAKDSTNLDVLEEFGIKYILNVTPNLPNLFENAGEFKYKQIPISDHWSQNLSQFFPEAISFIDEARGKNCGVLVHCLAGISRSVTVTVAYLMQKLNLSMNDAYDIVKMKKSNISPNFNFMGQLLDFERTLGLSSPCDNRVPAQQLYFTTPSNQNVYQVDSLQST
Activity calls are given as the source filed them.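 Rule for the calls: active = compounds giving at least 50% inhibition in the cell-based MKP-3 phosphatase rescue imaging test; inactive = the rest.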
ASSAY_ENDPOINT: inhibition

Query inhibition on Dual specificity protein phosphatase 6 (Homo sapiens) (UniProt Q16828) for `CCc1nc2sc3c(c2c(=O)o1)CCCC3` -2.07% (inactive)

Also need CSC1=C(C#N)C(C)CC(=O)N1 (configuration not stated) , thanks. -5.89% (inactive)

Also need `CC(C)CNC(=O)c1c(N)n(/N=C/c2ccccn2)c2nc3ccccc3nc12` , thanks. 4.37% (inactive)

Also need `CCOC(=O)c1n[nH]c2ccccc12` , thanks. 6.04% (inactive)

Also need `C/C(=C\C(=O)O)CC(=O)O` , thanks. 19.4% (inactive)

Also need CC1(C)CC(N(Cc2ccco2)C(=O)Cc2ccccc2)CCO1 (configuration not stated) , thanks. 3.5% (inactive)

Also need `COc1cccc(Cn2c(Oc3ccccc3)nc3c2c(=O)n(C)c(=O)n3C)c1` , thanks. 1.04% (inactive)

Also need `COCCNc1oc(-c2ccc(C)cc2)nc1C#N` , thanks. 18.2% (inactive)

Also need `COC(=O)c1cc(S(=O)(=O)N2CCOCC2)c(N2CCOCC2)cc1N1CCOCC1` , thanks. -1.75% (inactive)

Also need `O=C1c2ccccc2C(=O)N1CCN1CCc2ccccc21` , thanks. 13.2% (inactive)

Next:
Query inhibition on Dual specificity protein phosphatase 6 (Homo sapiens) (UniProt Q16828) for `N#CC(C(=O)Nc1ccc(Cl)c(Cl)c1)=C1Nc2ccccc2N1` -1.75% (inactive)

Also need `CCCSc1nc(C)c(CC(=O)OCC)c(=O)[nH]1` , thanks. 1.98% (inactive)

* * *

target: Dual specificity protein phosphatase 6 (Homo sapiens) (UniProt Q16828); experiment: DUSP6 inhibitors restoring Erk phosphorylation by chemical complementation, primary imaging in DUSP6-transfected HeLa (AID 609); conditions: HeLa MKP-3 transfected, phospho-Erk imaging KS statistic; at 10 µM; stronger effect = higher value; cells stimulated with TPA for 15 min;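 on inhibition: phospho-Erk level distribution per well compared with pooled transfected vehicle control wells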
ASSAY_ENDPOINT: inhibition (%)
Respond with the bare value in %.

Here is how some molecules turned out for inhibition.
Query inhibition on Dual specificity protein phosphatase 6 (Homo sapiens) (UniProt Q16828) for C=C(C)C1Cc2c(C)nn(-c3nc(C)cc(C)n3)c2C1 (stereo unspecified) 1.98

Also need `COc1ccccc1OCC(=O)Nc1ccc(S(=O)(=O)Nc2cc(C)nc(C)n2)cc1` , thanks. 4.25

Also need `COC(=O)CSc1nc(C)c(C(C)=O)cc1C#N` , thanks. -8.95

Also need `NC(=O)N1c2ccccc2C=Cc2ccccc21` , thanks. 15.3

Also need `CCCNC(=O)NS(=O)(=O)c1ccc(Cl)cc1` , thanks. -0.493

Next:
Query inhibition on Dual specificity protein phosphatase 6 (Homo sapiens) (UniProt Q16828) for CC(C)(C)NCC(O)c1cc(O)cc(O)c1 (stereo unspecified) 1.38

* * *

target: Voltage-gated potassium channel subunit beta-2 (Rattus norvegicus); assay: KvBeta enzyme negative modulators, primary screen, biochemical, NADPH fluorescence (AID 622); conditions: recombinant KvBeta, 4-cyanobenzaldehyde reduction, at 10 µM, stronger effect = higher value;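 further: slope of raw intensity against log time taken from 70 to 1610 s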
Category | rule: reported fluorescence slope within range, see low: < -0.5; mid: ≥ -0.5 and < -0.4; high: ≥ -0.4

Into which category would you place `O=C(c1cccc(Cl)c1)N1CCN(C(=O)c2ccccc2F)CC1` ? mid

Also need `Cc1nnc2n(-c3ccccc3)c(=O)c3c4c(sc3n12)CCCC4` , thanks. mid

Also need `CC(C)(C)c1ccc(O)c(N)c1` , thanks. low

Also need `C[C@]12CCC(=O)C=C1CC[C@@H]1[C@@H]2[C@@H](O)C[C@@]2(C)[C@H]1CC[C@]2(O)C(=O)CO` , thanks. mid

Also need COc1ccc(C2=CC(c3cccc(OC)c3)n3nnnc3N2)cc1 (configuration not stated) , thanks. mid

* * *

experiment: inhibitors of TNFa-induced NFkB p65 translocation, primary screen, imaging, HUVEC, MLSMR starter and 10KST1 sets (AID 438); details: HUVEC TNFa-induced p65 nuclear translocation; measured here: nuclei count (cytotoxicity indicator), at 2.08 µM;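 further: compound added about 3h40 before a 20 min TNFalpha stimulation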
Label 1 for high-side cell count (at or above 500) and 0 for low-side cell count (below it).

Solved cases below.
Given the entry `CCCCn1c(C)cc2cc(O)ccc21` , answer whether its cell count meets or surpasses 500. 0

Also need CCOc1ccccc1N1CCN(c2nc3ccccc3nc2C(C#N)C(=O)OC(C)C)CC1 (configuration not stated) , thanks. 0

Also need `CCCCCc1nc2sc3c(c2c(=O)n1N)CCC3` , thanks. 1

Next:
Given the entry `Cn1c(=O)c2[nH]cnc2n(C)c1=O` , answer whether its cell count meets or surpasses 500. 1

Also need `CCc1cc2c(=O)c(-c3cscn3)coc2c(CN(C)C)c1O` , thanks. 1

Also need `CC(C)Cn1cnc2c(c1=O)c1nc3ccccc3nc1n2Cc1ccc2c(c1)OCO2` , thanks. 0

Also need CCCCCCCCNC(C)C(O)c1ccc(SC(C)C)cc1 (configuration not stated) , thanks. 1

Also need `CCSC(SCC)[C@H](O)[C@@H](O)[C@H](O)[C@H](O)CO` , thanks. 1

* * *

test: inhibitors of TNFa-induced NFkB p65 translocation, primary screen, imaging, HUVEC, MLSMR starter and 10KST1 sets (AID 438); details: HUVEC TNFa-induced p65 nuclear translocation; measured here: nuclei count (cytotoxicity indicator), at 2.08 µM;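 further: compound added about 3h40 before a 20 min TNFalpha stimulation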
ASSAY_ENDPOINT: cell count
// response body must contain only the number

Can you look up the measured cell count of `CC(=O)N1CCN(c2nc(CC(C)C)c3c(c2C#N)CCC3)CC1` for me? 524

Also need `CSC1=Nc2sc3c(c2C2=NCCN12)CC(C)(C)OC3` , thanks. 540

Also need `O=C(c1coc(=O)c(Br)c1)N1CCCc2ccccc21` , thanks. 384

Also need `CCCCC[C@H](O)/C=C/[C@H]1C=CC(=O)[C@@H]1C/C=C\CCCC(=O)O` , thanks. 543

Also need `O/N=C(\c1ccc2c(c1)OCCO2)C1CCCCC1` , thanks. 483

# evaluate next
Can you look up the measured cell count of `Cc1ccnc(N2CCN(c3c4c(c(C#N)c5nc6ccccc6n35)CCC4)CC2)c1` for me? 585

* * *

# inhibition of aggregation listing for each entry below
experiment: inhibitors of mutant huntingtin aggregation, primary screen, imaging, exon1htt(103Q)mCFP cells, high-content imaging (AID 483); conditions: exon1htt(103Q)mCFP cell line, aggregate imaging, at 2 µM; stronger effect = higher value;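 further: compound exposure lasted 3 days before fixation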
Respond with the bare value in %.

Here is how some compounds turned out for inhibition of aggregation.
Can you look up the measured inhibition of aggregation of `COC(=O)c1cc(Br)c(=O)n(CCc2ccc(F)cc2)c1` for me? -4.6

Also need `c1cncc(-c2nnc3sc(-c4ccco4)nn23)c1` , thanks. 3.4

Also need `CCOC(=O)c1[nH]c2ccc(Br)cc2c1NC(=O)CNC` , thanks. -0.9

Also need O=C(O)CN(c1ccccc1)C1SC(=O)NC1=O (centres undefined) , thanks. 5.9

Also need CC(C)c1nc(NCC2CCCO2)c(C#N)c2c1COC(C)(C)C2 (centres undefined) , thanks. 6.9

Next:
Can you look up the measured inhibition of aggregation of `CCO/C([O-])=N/c1c[n+](N2CCOCC2)no1` for me? -18.2

Also need COc1ccccc1C1C(C#N)=C(N)Oc2cc(C)n(Cc3ccccn3)c(=O)c21 (centres undefined) , thanks. 12

Also need `CN1CCC(=C2c3ccccc3CC(=O)c3sccc32)CC1` , thanks. 5.4

Also need `CC(=O)c1c(OCC(=O)O)ccc2c(C)cc(=O)oc12` , thanks. 10.5

Values compiled from PubChem BioAssay.
